- assayed-system: UniProt P08069
- assay-procedure: Inhibition of phospho IGFR1 by cellular assay
reported-metric: IC50 (nM)

Completed entries (count: 2):
{"columns": ["compound", "assayed-system", "reported-metric", "value-observed"],
 "data": [
  ["CCCN1CCC(Oc2ccc(OC)c(Nc3nc(Nc4cccc(F)c4C(N)=O)c4cc[nH]c4n3)c2)CC1", "UniProt P08069", "IC50", 929],
  ["COc1cc2c(cc1Nc1nc(Nc3cccc(F)c3C(N)=O)c3cc[nH]c3n1)N(C(=O)CN(C)OC)CC2", "UniProt P08069", "IC50", 877]
]}

(1) CCCN1CCC(Oc2cc(Nc3nc(Nc4cccc(F)c4C(N)=O)c4cc[nH]c4n3)c(OC)cc2Cl)CC1 [GSK-1713088A]
(2) COc1cc(C)c(NC(=O)CN(C)C)cc1Nc1nc(Nc2cccc(F)c2C(N)=O)c2cc[nH]c2n1 [GSK-2213727A]
[ask] I'd appreciate it if you could identify which of 1 and 2 has the greater IC50. Reply with the label of the item you choose.
[reply] 1

* * *

- assay-procedure: Cmax in rat at 9 mg/kg, po
- Assay type: ADME, organism-based
- Parameters: dose 9 mg/kg, route oral
- condition: in vivo
reported-metric: Cmax (ng/mL)
// return numeric value only (unit: ng/mL, not printed)

[ask] Can you look up the measured Cmax of COc1ccc(N2CCN(C(C)C)CC2)cc1Nc1nc(Nc2cccc(F)c2C(N)=O)c2cc[nH]c2n1 for me?
[reply] 233

* * *

- assayed-system: Mitogen-activated protein kinase 8 (Homo sapiens, UniProt P45983)
- Sequence (P45983 whole entry): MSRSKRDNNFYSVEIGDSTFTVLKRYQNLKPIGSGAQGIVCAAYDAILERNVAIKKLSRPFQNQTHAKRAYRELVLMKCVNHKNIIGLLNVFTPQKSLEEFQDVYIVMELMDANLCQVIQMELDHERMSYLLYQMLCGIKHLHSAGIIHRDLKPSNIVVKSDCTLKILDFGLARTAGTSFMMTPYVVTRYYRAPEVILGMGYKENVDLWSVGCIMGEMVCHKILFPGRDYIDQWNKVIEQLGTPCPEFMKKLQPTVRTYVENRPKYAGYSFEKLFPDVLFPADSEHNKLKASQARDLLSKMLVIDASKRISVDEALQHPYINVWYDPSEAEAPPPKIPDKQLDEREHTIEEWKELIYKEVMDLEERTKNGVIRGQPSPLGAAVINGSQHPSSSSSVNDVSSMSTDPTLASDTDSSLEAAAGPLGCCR
- assay-procedure: Inhibition of His-tagged JNK1
reported-metric: IC50 (nM)

Previously resolved entries follow.
{"columns": ["smiles-text", "assayed-system", "endpoint-unit", "IC50"],
 "data": [
  ["COc1cc(C)c(N2CCN(C(C)C)CC2)cc1Nc1nc(Nc2cccc(F)c2C(N)=O)c2cc[nH]c2n1", "Mitogen-activated protein kinase 8 (Homo sapiens, UniProt P45983)", "nM", 3890],
  ["COc1ccc(NC(=O)CN(C)C)cc1Nc1nc(Nc2cccc(F)c2C(N)=O)c2cc[nH]c2n1", "Mitogen-activated protein kinase 8 (Homo sapiens, UniProt P45983)", "nM", 3160],
  ["COc1cc2c(cc1Nc1nc(Nc3cccc(F)c3C(N)=O)c3cc[nH]c3n1)N(C(=O)CN1CCOCC1)CC2", "Mitogen-activated protein kinase 8 (Homo sapiens, UniProt P45983)", "nM", 126],
  ["COc1cc2c(cc1Nc1nc(Nc3cccc(F)c3C(N)=O)c3cc[nH]c3n1)N(C(=O)CN(C)C)CC2", "Mitogen-activated protein kinase 8 (Homo sapiens, UniProt P45983)", "nM", 1590],
  ["COc1cc2c(cc1Nc1nc(Nc3cccc(F)c3C(N)=O)c3cc[nH]c3n1)N(C(=O)CCN1CCOCC1)CC2", "Mitogen-activated protein kinase 8 (Homo sapiens, UniProt P45983)", "nM", 251]
]}

(a) COc1cc2c(cc1Nc1nc(Nc3cccc(F)c3C(N)=O)c3cc[nH]c3n1)N(C(=O)CN1CCCC1)CC2
(b) COc1ccc(N(C)C(=O)CN(C)C)cc1Nc1nc(Nc2cccc(F)c2C(N)=O)c2cc[nH]c2n1
[ask] // select label with min value of measured IC50 from [ a , b ] Your answer should be the label of the entry you select.
[reply] a

* * *

- assayed-system: Insulin-like growth factor 1 receptor (Homo sapiens)
- assay-procedure: Inhibition of IGF-1R
pIC50: −log10 of the molar value.
reported-metric: pIC50

{"columns": ["molecule", "value-observed"],
 "data": [
  ["COc1ccc(N(C)C(=O)CN(C)C)cc1Nc1nc(Nc2cccc(F)c2C(N)=O)c2cc[nH]c2n1", 7.30]
]}

(I) COc1cc(C)c(N(C)C(=O)CN(C)C)cc1Nc1nc(Nc2cccc(F)c2C(N)=O)c2cc[nH]c2n1 [GSK-2219385A]
(II) COc1cc2c(cc1Nc1nc(Nc3cccc(F)c3C(N)=O)c3cc[nH]c3n1)N(C(=O)CCN(C)C)CC2
[ask] Could you please tell me which of these two has the higher pIC50: I or II ? Mark your selection by writing its label.
[reply] II

* * *

- assayed-system: Mitogen-activated protein kinase 8 (Homo sapiens, UniProt P45983)
- assay-procedure: Inhibition of His-tagged JNK1
pIC50: −log10 of the molar value.
reported-metric: pIC50

(I) COc1cc2c(cc1Nc1nc(Nc3cccc(F)c3C(N)=O)c3cc[nH]c3n1)N(C(=O)Cn1ccnc1)CC2
(II) COc1cc2c(cc1Nc1nc(Nc3cccc(F)c3C(N)=O)c3cc[nH]c3n1)N(C(C)=O)CC2
[ask] Compare the recorded pIC50 of I and II ; state which is larger. Could you answer with the label of the item you picked?
[reply] II

(P) COc1cc2c(cc1Nc1nc(Nc3cccc(F)c3C(N)=O)c3cc[nH]c3n1)N(C(=O)CN1CCCCC1)CCC2
(Q) COc1cc2c(cc1Nc1nc(Nc3cccc(F)c3C(N)=O)c3cc[nH]c3n1)N(C(=O)CCN1CCN(C(C)C)CC1)CC2
[ask] Could you determine which record has the numerically smaller pIC50? Candidates: P and Q Give the chosen item's label as your response.
[reply] P

* * *

- assayed-system: Insulin-like growth factor 1 receptor (Homo sapiens, UniProt P08069)
- Sequence (P08069 31-736 limits assumed): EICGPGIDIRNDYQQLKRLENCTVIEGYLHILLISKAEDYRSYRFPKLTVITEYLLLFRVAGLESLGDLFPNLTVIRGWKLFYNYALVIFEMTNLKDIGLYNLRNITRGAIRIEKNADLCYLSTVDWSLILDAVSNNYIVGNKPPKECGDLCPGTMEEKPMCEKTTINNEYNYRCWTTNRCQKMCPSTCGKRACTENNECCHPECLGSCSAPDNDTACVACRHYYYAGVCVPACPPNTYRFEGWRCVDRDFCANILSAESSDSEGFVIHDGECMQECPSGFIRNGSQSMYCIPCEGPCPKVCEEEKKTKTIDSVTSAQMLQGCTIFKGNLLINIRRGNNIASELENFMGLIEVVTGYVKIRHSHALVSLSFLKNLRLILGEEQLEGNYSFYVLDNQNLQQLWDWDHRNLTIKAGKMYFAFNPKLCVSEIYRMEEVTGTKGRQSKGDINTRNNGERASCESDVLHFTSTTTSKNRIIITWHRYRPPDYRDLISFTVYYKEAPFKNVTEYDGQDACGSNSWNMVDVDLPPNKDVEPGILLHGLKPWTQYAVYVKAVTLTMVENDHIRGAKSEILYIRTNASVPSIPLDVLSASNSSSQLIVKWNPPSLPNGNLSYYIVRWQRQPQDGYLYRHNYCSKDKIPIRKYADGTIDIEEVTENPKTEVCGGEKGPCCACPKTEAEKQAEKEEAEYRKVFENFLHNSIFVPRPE
- Sequence (P08069 741-1367 limits assumed): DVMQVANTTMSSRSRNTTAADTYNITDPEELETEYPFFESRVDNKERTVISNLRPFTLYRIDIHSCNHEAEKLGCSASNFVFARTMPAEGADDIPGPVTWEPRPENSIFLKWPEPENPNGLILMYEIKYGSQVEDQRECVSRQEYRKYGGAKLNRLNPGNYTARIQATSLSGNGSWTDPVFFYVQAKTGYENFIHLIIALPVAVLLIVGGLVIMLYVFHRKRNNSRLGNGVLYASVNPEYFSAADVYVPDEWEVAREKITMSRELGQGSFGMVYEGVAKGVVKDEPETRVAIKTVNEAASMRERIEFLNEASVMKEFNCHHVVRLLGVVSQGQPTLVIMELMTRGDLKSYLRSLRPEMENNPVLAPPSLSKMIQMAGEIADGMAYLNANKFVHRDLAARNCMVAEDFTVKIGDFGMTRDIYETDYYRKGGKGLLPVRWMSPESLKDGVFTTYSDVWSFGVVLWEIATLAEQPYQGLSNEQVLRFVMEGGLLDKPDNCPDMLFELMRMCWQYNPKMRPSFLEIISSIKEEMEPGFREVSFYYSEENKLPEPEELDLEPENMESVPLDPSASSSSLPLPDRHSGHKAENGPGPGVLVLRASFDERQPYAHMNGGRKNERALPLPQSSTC
- assay-procedure: Inhibition of IGF-1R
reported-metric: IC50 (nM)

See these solved cases before continuing.
{"columns": ["molecule", "reported-metric", "value-observed"],
 "data": [
  ["COc1cc2c(cc1Nc1nc(Nc3cccc(F)c3C(N)=O)c3cc[nH]c3n1)N(C(=O)CCN(C)C)CCC2", "IC50", 10],
  ["COc1cc2c(cc1Nc1nc(Nc3cccc(F)c3C(N)=O)c3cc[nH]c3n1)N(C(=O)CN1CCC1)CC2", "IC50", 1],
  ["COc1cc(C)c(CCCN(C)C)cc1Nc1nc(Nc2cccc(F)c2C(N)=O)c2cc[nH]c2n1", "IC50", 13],
  ["CCN(C)CC(=O)N1CCc2cc(OC)c(Nc3nc(Nc4cccc(F)c4C(N)=O)c4cc[nH]c4n3)cc21", "IC50", 3],
  ["COc1ccc(OCCCN(C)C)cc1Nc1nc(Nc2cccc(F)c2C(N)=O)c2cc[nH]c2n1", "IC50", 8],
  ["COc1cc2c(cc1Nc1nc(Nc3cccc(F)c3C(N)=O)c3cc[nH]c3n1)N(C(=O)CCN1CCN(C(C)C)CC1)CC2", "IC50", 4]
]}

(A) COc1cc2c(cc1Nc1nc(Nc3cccc(F)c3C(N)=O)c3cc[nH]c3n1)N(C(=O)CN1CCN(C(C)C)CC1)CC2 [GSK-1751853A]
(B) COc1cc2c(cc1Nc1nc(Nc3cccc(F)c3C(N)=O)c3cc[nH]c3n1)N(C(=O)CN1CCCC1)CC2
[ask] // max by IC50 over [ A , B ] // return label of chosen record
[reply] A
(A: 32 nM, B: 1 nM)
